- tested.system: CXCR3 (Homo sapiens, UniProt P49682)
- Construct: expressed in transfected cells; host or cells: HEK293 / HEK293T cells, stably transfected; membrane preparations
- Sequence (P49682 whole entry): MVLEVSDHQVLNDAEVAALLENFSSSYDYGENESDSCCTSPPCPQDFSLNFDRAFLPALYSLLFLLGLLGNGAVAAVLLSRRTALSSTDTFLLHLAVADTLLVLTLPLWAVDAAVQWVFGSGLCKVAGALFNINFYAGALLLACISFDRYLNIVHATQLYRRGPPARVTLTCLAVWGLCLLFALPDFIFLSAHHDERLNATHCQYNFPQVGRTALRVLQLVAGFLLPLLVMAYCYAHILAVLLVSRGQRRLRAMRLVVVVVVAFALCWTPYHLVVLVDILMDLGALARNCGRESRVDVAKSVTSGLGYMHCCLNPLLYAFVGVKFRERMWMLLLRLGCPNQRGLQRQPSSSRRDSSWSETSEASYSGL
- assay.summary: [35S]GTPγS incorporation assay
- Format: biochemical
- test.conditions: membrane preparations of HEK293T stably expressing CXCR3; mean of three experiments in triplicate

>  <compound>
CC(C)(C)OC(=O)N[C@@H](CCCCNC(=O)[C@@H]1Cc2ccccc2CN1C(=O)CCC(=O)c1ccc(S(C)(=O)=O)cc1)C(=O)NCC(c1ccccc1)c1ccccc1 [Compound 15]

>  <CXCR3 pEC50 ± SEM>
5.91±0.20

$$$$
>  <compound>
CC(C)(C)OC(=O)N[C@@H](CCCCNC(=O)[C@@H]1Cc2ccccc2CN1C(=O)CCC(=O)c1ccc(F)cc1)C(=O)NCC(c1ccccc1)c1ccccc1 [Compound 13]

>  <CXCR3 pEC50 ± SEM>
6.29±0.31

$$$$
>  <compound>
N[C@@H](CCCCNC(=O)[C@@H]1Cc2ccccc2CN1)C(=O)NCC(c1ccccc1)c1ccccc1.O=C(O)C(F)(F)F.O=C(O)C(F)(F)F [Compound 28]

>  <CXCR3 pEC50 ± SEM>
5.65±0.23

$$$$
>  <compound>
CC(C)(C)OC(=O)N[C@@H](CCCCNC(=O)[C@@H]1Cc2ccccc2CN1C(=O)CCC(=O)c1ccco1)C(=O)NCC(c1ccccc1)c1ccccc1 [Compound 20]

>  <CXCR3 pEC50 ± SEM>
No effect

$$$$
>  <compound>
CC(C)(C)OC(=O)N[C@@H](CCCCNC(=O)[C@@H]1Cc2ccccc2CN1C(=O)CCC(=O)N1CCOCC1)C(=O)NCC(c1ccccc1)c1ccccc1 [Compound 17]

>  <CXCR3 pEC50 ± SEM>
No effect

$$$$
>  <compound>
CC(C)(C)OC(=O)N[C@@H](CCCCNC(=O)[C@@H]1Cc2ccccc2CN1C(=O)CCC(=O)N1CCCCC1)C(=O)NCC(c1ccccc1)c1ccccc1 [Compound 16]

>  <CXCR3 pEC50 ± SEM>
No effect

$$$$
>  <compound>
CC(C)(C)OC(=O)N[C@@H](CCCCNC(=O)[C@@H]1Cc2ccccc2CN1C(=O)CCCC(=O)c1ccccc1)C(=O)NCC(c1ccccc1)c1ccccc1 [Compound 24]

>  <CXCR3 pEC50 ± SEM>
No effect

$$$$
>  <compound>
N[C@@H](CCCCNC(=O)[C@@H]1Cc2ccccc2CN1C(=O)CCC(=O)c1ccccc1)C(=O)NCC(c1ccccc1)c1ccccc1.O=C(O)C(F)(F)F [Compound 25]

>  <CXCR3 pEC50 ± SEM>
No effect

$$$$
>  <compound>
CC(=O)CCC(=O)N1Cc2ccccc2C[C@H]1C(=O)NCCCC[C@H](NC(=O)OC(C)(C)C)C(=O)NCC(c1ccccc1)c1ccccc1 [Compound 12]

>  <CXCR3 pEC50 ± SEM>
No effect

$$$$
>  <compound>
CC(C)(C)OC(=O)N[C@@H](CCCCNC(=O)[C@@H]1Cc2ccccc2CN1C(=O)CCC(=O)O)C(=O)NCC(c1ccccc1)c1ccccc1 [Compound 27]

>  <CXCR3 pEC50 ± SEM>
No effect

$$$$
>  <compound>
CC(C)(C)OC(=O)NCCCC[C@H](NC(=O)[C@@H]1Cc2ccccc2CN1C(=O)CCC(=O)c1ccccc1)C(=O)NCC(c1ccccc1)c1ccccc1 [Compound 44]

>  <CXCR3 pEC50 ± SEM>
5.88±0.10

$$$$
